Tested on: HCT-15 colon
testMethodNotes: NCI-60 one-dose screen, 48 h
measurementParameters: 10 µM unless noted
This is part of a sample that, as a whole, favours compounds with a hit. Of some 83,000 tested, about 20% had one in any assay. Activity calls are given as the source filed them. Rule for the calls: active = growth percent below 10; inactive = the rest.
Possible outcomes: TRUE (active), FALSE (inactive)

{"compound": "Nc1nc(Nc2ccc([N+](=O)[O-])cc2O)nc(C(Cl)(Cl)Cl)n1", "assignedClass": "FALSE"}
{"compound": "Cn1cc(-c2ccc3occ(-c4cccc(-c5ccncc5)c4)c3n2)cn1", "assignedClass": "TRUE"}
{"compound": "CCOC(=O)c1c(Nc2nc3ccccc3s2)sc2c1CCC(=O)C2", "assignedClass": "FALSE"}
{"compound": "CCCS(=O)(=O)Nc1cccc(Nc2ncnc3cc(NC(=O)CCl)ccc23)c1Cl", "assignedClass": "TRUE"}
{"compound": "CCN1C(=O)N(CC)C2C1NN=c1s/c(=C3\\C(=O)N(C)c4ccccc43)c(=O)n12 (stereo not given)", "assignedClass": "FALSE"}
{"compound": "COc1cc(C2CC(c3cccc(Nc4ccncc4)c3)=Nc3c(N)ncnc3N2)cc(OC)c1OC (stereo not given)", "assignedClass": "FALSE"}
{"compound": "C[C@@H]1N=C(c2ccc(Cl)cc2Cl)Nc2nc3ccccn3c2C1=O", "assignedClass": "FALSE"}
{"compound": "COc1ccc(Cn2cc3c(c2)-c2oncc2CC3)cc1", "assignedClass": "FALSE"}
{"compound": "Cc1nc2ccccc2c(/C=C/c2ccc(Cl)cc2)c1C(=O)/C=C/c1ccccc1", "assignedClass": "TRUE"}
{"compound": "COc1ccc(NC(=O)CSc2oc(-c3ccccc3)nc2S(=O)(=O)c2ccc(Cl)cc2)c(OC)c1", "assignedClass": "FALSE"}

Data origin, for the record: PubChem BioAssay (NCI)
